Reported binding signal by item:
assayed.target: T1, RBFOX1 RRM RbFoxmut (Fox-RRM*) (Homo sapiens, UniProt Q9NWB1 109-208, R118D;E147R;N151S;E152T)
T1 sequence: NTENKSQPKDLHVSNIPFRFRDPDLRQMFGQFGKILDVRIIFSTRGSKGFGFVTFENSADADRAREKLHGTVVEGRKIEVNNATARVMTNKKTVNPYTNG
protocol: EMSA; HiTS-Eq, 1 nM pool, 10 min; buffer printed only for the single-RNA assays: 10 mM Tris pH 7.5, 150 mM NaCl, 3.4 mM EDTA, 0.001% NP-40, 30 C
conditions.used: tags: His6 N-terminal (pET28a); label: 5' 32P
Whole data set: some 16,000 sequences, median “ka relative to ugcaugu” near 0.096, cut for the highest 2% near 0.35. Only a selection was taken, and the highest values are over-represented in it overall.
measured.parameter: binding signal

[[record]]
binder = "UGACGUC (DNA:RNA) RNA: GGGAGACCGGAAUUCAGAUUGUCCUGACGUCUUAAAUCCCGUCGUAGCCACCA DNA 1: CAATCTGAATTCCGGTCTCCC DNA 2: TGGTGGCTACGACGGGATT"
result = "0.0923 KA relative to UGCAUGU"

[[record]]
binder = "UUGGCUG (DNA:RNA) RNA: GGGAGACCGGAAUUCAGAUUGUCCUUGGCUGUUAAAUCCCGUCGUAGCCACCA DNA 1: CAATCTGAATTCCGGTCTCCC DNA 2: TGGTGGCTACGACGGGATT"
result = "0.435 KA relative to UGCAUGU"

[[record]]
binder = "UGGUAAA (DNA:RNA) RNA: GGGAGACCGGAAUUCAGAUUGUCCUGGUAAAUUAAAUCCCGUCGUAGCCACCA DNA 1: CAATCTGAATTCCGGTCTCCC DNA 2: TGGTGGCTACGACGGGATT"
result = "0.0843 KA relative to UGCAUGU"

[[record]]
binder = "AUCCGCU (DNA:RNA) RNA: GGGAGACCGGAAUUCAGAUUGUCCAUCCGCUUUAAAUCCCGUCGUAGCCACCA DNA 1: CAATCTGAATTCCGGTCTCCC DNA 2: TGGTGGCTACGACGGGATT"
result = "0.121 KA relative to UGCAUGU"

[[record]]
binder = "GUGGCUC (DNA:RNA) RNA: GGGAGACCGGAAUUCAGAUUGUCCGUGGCUCUUAAAUCCCGUCGUAGCCACCA DNA 1: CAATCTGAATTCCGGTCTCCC DNA 2: TGGTGGCTACGACGGGATT"
result = "0.125 KA relative to UGCAUGU"

[[record]]
binder = "UGGUAGC (DNA:RNA) RNA: GGGAGACCGGAAUUCAGAUUGUCCUGGUAGCUUAAAUCCCGUCGUAGCCACCA DNA 1: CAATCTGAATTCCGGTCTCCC DNA 2: TGGTGGCTACGACGGGATT"
result = "0.102 KA relative to UGCAUGU"

[[record]]
binder = "CUACAAU (DNA:RNA) RNA: GGGAGACCGGAAUUCAGAUUGUCCCUACAAUUUAAAUCCCGUCGUAGCCACCA DNA 1: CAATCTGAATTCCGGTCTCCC DNA 2: TGGTGGCTACGACGGGATT"
result = "0.0289 KA relative to UGCAUGU"

[[record]]
binder = "UGGUAUG (DNA:RNA) RNA: GGGAGACCGGAAUUCAGAUUGUCCUGGUAUGUUAAAUCCCGUCGUAGCCACCA DNA 1: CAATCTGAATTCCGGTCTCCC DNA 2: TGGTGGCTACGACGGGATT"
result = "1.27 KA relative to UGCAUGU"

[[record]]
binder = "UUGGCUC (DNA:RNA) RNA: GGGAGACCGGAAUUCAGAUUGUCCUUGGCUCUUAAAUCCCGUCGUAGCCACCA DNA 1: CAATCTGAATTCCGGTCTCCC DNA 2: TGGTGGCTACGACGGGATT"
result = "0.134 KA relative to UGCAUGU"

